B1: Pistol ribozyme (parent)
chain: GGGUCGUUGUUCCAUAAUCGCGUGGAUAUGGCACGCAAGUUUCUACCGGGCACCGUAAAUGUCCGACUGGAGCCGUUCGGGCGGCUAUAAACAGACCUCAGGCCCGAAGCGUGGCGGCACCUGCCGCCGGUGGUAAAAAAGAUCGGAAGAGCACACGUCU

Variants of: B1
Assay: aptazyme ON/OFF ratio, guanine; higher = stronger switching; co-transcriptional cleavage with and without guanine
Catalogue of variants with associated aptazyme ON/OFF ratio
The reply should be a number, written without any unit.

Noted for U7G U8G G9A U10C C12A C13U : its aptazyme ON/OFF ratio reads 1.32

The variant listed as U7G U8C G9U U10A U11A C12U has a reported aptazyme ON/OFF ratio of 2.3

The measured aptazyme ON/OFF ratio associated with U7C U8G G9A U10C U11C C12G reads 1.03

Looking up U7C U10G U11C C12G C13A , I found its aptazyme ON/OFF ratio recorded as 1.22

Sample U8G U10A U11C C12A C13G ; aptazyme ON/OFF ratio observed: 1.12

For this variant ( G9A U10A U11C C12U C13G ), measured aptazyme ON/OFF ratio is 1.36
